Experiment: solubility limit of genipin in the liquid composition
Assay type: physicochemical
Conditions: liquid composition: solvent with dissolved genipin; liquid form, solvent water or buffered water
Experimental: In liquid form, the composition consists of at least a solvent and dissolved genipin in an amount in the range of 10 mM to 200 mM (millimolar), with a preference towards the upper end of this range. […] The ultimate upper limit of 200 mM is the amount where the tattoo applicator becomes too stiff and ultimately impractical to use. […] The pH of water is 7.0, which reasonably approximates the determined optimal pH, and is within a range of pH values which lead to preferred results. […]
value.type: solubility

INSERT INTO measurements (smiles_text, value_type, result) VALUES
  ('COC(=O)C1=CO[C@@H](O)[C@@H]2C(CO)=CC[C@H]12', 'solubility', '95 mM');
